assay-overview: Terminal drug concentration in CD40-induced B6 CB17 mouse serum at 25 mg/kg, po BID administered as nanosuspension measured 24 hrs post-last dose
Format: ADME, organism-based
condition-parameters: read-out: Drug uptake

{"test-smiles": "[2H]C([2H])([2H])NC(=O)c1nnc(Nc2ccccn2)cc1Nc1ccccc1S(C)(=O)=O", "concentration at 24 h": "0.012 µM"}

---

assay-overview: Drug concentration in Balb/c mouse at 3 mg/kg, iv after 1 hr
Assay type: ADME, organism-based
condition-parameters: in vivo, read-out: Drug uptake
measured-parameter: concentration at 1 h (nM)

{"test-smiles": "CNC(=O)c1cnc(Nc2ccc(F)cn2)cc1Nc1ccccc1S(C)(=O)=O", "measured-parameter": "concentration at 1 h", "measured-number": 2100}
{"test-smiles": "[2H]C([2H])([2H])NC(=O)c1cnc(Nc2ccc(F)cn2)cc1Nc1ccccc1S(C)(=O)=O", "measured-parameter": "concentration at 1 h", "measured-number": 1500}
